Values from ChEMBL document CHEMBL5252546

assay notes: AUC (0-infinity) in male rat at 4 mg/kg,iv measured upto 24 hrs
Type: ADME, organism-based
Design: time < 24 hrs, dose 4 mg/kg, route iv
conditions used: in vivo
endpoint: AUC(0-inf)
Include the unit after the number when you answer.

Entry under test: "CC(=O)O[C@@]12CO[C@@H]1C[C@H](O)[C@@]1(C)C(=O)[C@H](O)C3=C(C)[C@@H](OC(=O)[C@H](OC(=O)CCC(=O)NCCCC[C@H](NC(=O)CC[C@@H](NC(=O)[C@H](C)NC(=O)/C=C/c4ccc(F)cc4Cl)C(N)=O)C(=O)O)[C@@H](NC(=O)OC(C)(C)C)c4ccccc4)C[C@@](O)([C@@H](OC(=O)c4ccccc4)[C@H]21)C3(C)C" . Its AUC(0-inf) was 20800 ng·h/mL

----------
assay notes: Cmax in mouse tumor implanted with mouse 4T1 cells at 5.7 mg/kg,iv measured upto 72 hrs
Assay type: ADME, organism-based, Neoplasm
Design: time < 72 hrs, dose 5.7 mg/kg, route iv
endpoint: Cmax (nM)
Numbers only, in nM.

Entry under test: CC(=O)O[C@@]12CO[C@@H]1C[C@H](O)[C@@]1(C)C(=O)[C@H](O)C3=C(C)[C@@H](OC(=O)[C@H](O)[C@@H](NC(=O)OC(C)(C)C)c4ccccc4)C[C@@](O)([C@@H](OC(=O)c4ccccc4)[C@H]21)C3(C)C [DOCETAXEL ANHYDROUS] . Its Cmax was 950

----------
assay notes: Half life in male Beagle dog at 1 mg/kg,iv measured upto 24 hrs
Format: ADME, organism-based, Canis lupus familiaris
conditions used: in vivo
endpoint: half-life

Entry under test: "CC(=O)O[C@@]12CO[C@@H]1C[C@H](O)[C@@]1(C)C(=O)[C@H](O)C3=C(C)[C@@H](OC(=O)[C@H](OC(=O)CCC(=O)NCCCC[C@H](NC(=O)CC[C@@H](NC(=O)[C@H](C)NC(=O)/C=C/c4ccc(F)cc4Cl)C(N)=O)C(=O)O)[C@@H](NC(=O)OC(C)(C)C)c4ccccc4)C[C@@](O)([C@@H](OC(=O)c4ccccc4)[C@H]21)C3(C)C" . Its half-life was 13.6 min

----------
assay notes: Cmax in mouse tumor implanted with mouse 4T1 cells at 10 mg/kg,iv measured upto 72 hrs
Assay type: ADME, organism-based, Neoplasm
Set-up: time < 72 hrs, dose 10 mg/kg, route iv
endpoint: Cmax (nM)
Numbers only, in nM.

Entry under test: "CC(=O)O[C@@]12CO[C@@H]1C[C@H](O)[C@@]1(C)C(=O)[C@H](O)C3=C(C)[C@@H](OC(=O)[C@H](OC(=O)CCC(=O)NCCCC[C@H](NC(=O)CC[C@@H](NC(=O)[C@H](C)NC(=O)/C=C/c4ccc(F)cc4Cl)C(N)=O)C(=O)O)[C@@H](NC(=O)OC(C)(C)C)c4ccccc4)C[C@@](O)([C@@H](OC(=O)c4ccccc4)[C@H]21)C3(C)C" . Its Cmax was 140

----------
assay notes: Tmax in mouse tumor implanted with mouse 4T1 cells at 5.7 mg/kg,iv measured upto 72 hrs
Assay type: ADME, organism-based, Neoplasm
endpoint: Tmax
Include the unit after the number when you answer.

Entry under test: CC(=O)O[C@@]12CO[C@@H]1C[C@H](O)[C@@]1(C)C(=O)[C@H](O)C3=C(C)[C@@H](OC(=O)[C@H](O)[C@@H](NC(=O)OC(C)(C)C)c4ccccc4)C[C@@](O)([C@@H](OC(=O)c4ccccc4)[C@H]21)C3(C)C [DOCETAXEL ANHYDROUS] . Its Tmax was 30 min
